# Tested on: LCLC-97TM1
# Assay Protocol: relative viability (nuclei count vs DMSO), 5 days (fraction); higher = more cells survive
# Particulars: first compound 0.08 µM
Please provide measured relative viability for the entries that follow.
Numbers only.

Solved entries (count: 4):
>>> endpoint_value("CCCCCCCCCCCC1=C(O)C(=O)C=C(O)C1=O [Embelin] + CC(C)C[C@H](NC(=O)[C@H](Cc1ccccc1)NC(=O)c1cnccn1)B(O)O [Bortezomib] (partner 0.002 µM)")
0.812
>>> endpoint_value("CCCCCCCCCCCC1=C(O)C(=O)C=C(O)C1=O [Embelin] + O=C(CCCCCCC(=O)Nc1ccccc1)NO [Vorinostat] (partner 1 µM)")
0.789
>>> endpoint_value("CCCCCCCCCCCC1=C(O)C(=O)C=C(O)C1=O [Embelin] + Nc1nc2[nH]cc(CCc3ccc(C(=O)N[C@@H](CCC(=O)O)C(=O)O)cc3)c2c(=O)[nH]1 [Pemetrexed] (partner 0.2 µM)")
0.17
>>> endpoint_value("CCCCCCCCCCCC1=C(O)C(=O)C=C(O)C1=O [Embelin] + COc1cccc2cc(-c3nc([C@H]4CC[C@H](C(=O)O)CC4)n4ncnc(N)c34)[nH]c12 [OSI-027] (partner 0.5 µM)")
0.376

// next entry
The compound listed as CCCCCCCCCCCC1=C(O)C(=O)C=C(O)C1=O [Embelin] + COc1cc2c(Oc3ccc(NC(=O)C4(C(=O)Nc5ccc(F)cc5)CC4)cc3F)ccnc2cc1OCCCN1CCOCC1 [Foretinib] (partner 0.25 µM) shows relative viability equal to 0.988

The origin of these recorded values is the supplement of paper PMC10307832.
